target: ERK2 enzyme (Homo sapiens (Human), UniProt P28482); test: Inhibition assay of ERK (Z'-LYTE kinase assay, Ser/Thr 3 peptide substrate); type: biochemical; conditions: In vitro ERK2 enzyme, 100 μM ATP
Sequence (P28482 whole entry): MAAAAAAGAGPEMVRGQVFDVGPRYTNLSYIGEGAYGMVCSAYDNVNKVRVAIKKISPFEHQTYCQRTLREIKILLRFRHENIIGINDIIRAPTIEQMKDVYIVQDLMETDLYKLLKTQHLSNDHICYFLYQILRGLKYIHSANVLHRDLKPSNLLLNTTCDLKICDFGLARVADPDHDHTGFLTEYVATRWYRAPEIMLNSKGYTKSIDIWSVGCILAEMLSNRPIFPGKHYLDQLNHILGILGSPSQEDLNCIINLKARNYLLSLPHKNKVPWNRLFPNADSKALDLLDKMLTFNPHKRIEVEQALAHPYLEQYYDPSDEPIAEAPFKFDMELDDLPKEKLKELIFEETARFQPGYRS
pIC50: −log10 of the molar value.
Recorded pIC50 by entry

COc1ncc(-c2n[nH]c3cc4c(cc23)CN([C@@H]2CCCN(Cc3c(F)cccc3OC)C2)C(=O)N4)cn1 = > 7.30
Cc1cc(-c2n[nH]c3cc4c(cc23)CN([C@H](C)c2ccc(C#N)cc2)C(=O)N4)ccn1 = > 7.30
COc1ccc(-c2n[nH]c3cc4c(cc23)CN(Cc2ccc(F)c(Cl)c2)C(=O)N4)cn1 = > 7.30
COc1ncc(-c2n[nH]c3cc4c(cc23)CN(Cc2cc(F)cc(F)c2)C(=O)N4)cn1 = > 7.30
COc1ncc(-c2n[nH]c3cc4c(cc23)CN(CCc2cccc(Cl)c2)CC(=O)N4)cn1 = 6.00 to 6.60
COc1ncc(-c2n[nH]c3cc4c(cc23)CN([C@@H]2CCCN(Cc3c(F)cccc3F)C2)C(=O)N4)cn1 = > 7.30
Cc1cc(-c2n[nH]c3cc4c(cc23)CN([C@@H]2CCCN(C3CCCCC3)C2)C(=O)N4)ccn1 = 6.60 to 7.30
Cc1cc(-c2n[nH]c3cc4c(cc23)CN(C2CCNCC2)C(=O)N4)ccn1 = 6.60 to 7.30
Cc1cc(-c2n[nH]c3cc4c(cc23)CN([C@@H]2CCCN(CC3CCCC3)C2)C(=O)N4)ccn1 = 6.60 to 7.30
Cc1cc(-c2n[nH]c3cc4[nH]c(=O)c(C(C)Cc5ccc(F)cc5)cc4cc23)ccn1 (centres unmarked) = < 6.00

What value of pIC50 has been reported for the following compound? "Cc1cc(-c2n[nH]c3cc4c(cc23)CN(CCO)C(=O)N4)ccn1" > 7.30

What value of pIC50 has been reported for the following compound? "O=C1Nc2cc3[nH]nc(-c4ccnnc4)c3cc2CN1[C@@H]1CCCN(Cc2ccccc2)C1" > 7.30

What value of pIC50 has been reported for the following compound? "COc1ncc(-c2n[nH]c3cc4c(cc23)CN(CC2CCN(CC3CC3)CC2)C(=O)N4)cn1" 6.00 to 6.60

What value of pIC50 has been reported for the following compound? "Cc1cc(-c2n[nH]c3cc4c(cc23)CN([C@@H]2CCCN(Cc3cnccc3C)C2)C(=O)N4)ccn1" 6.60 to 7.30
